# TARGET OR TEST SYSTEM: HLA-A*02:01
# ASSAY PROTOCOL: IEDB peptide-MHC binding, purified MHC/competitive/radioactivity; filed as Kd, often an IC50 or EC50 that approximates it; bounds were set here for any values at or beyond the usual limits of such assays
# ASSAY CONDITIONS: source organism: Guanarito virus strain INH-95551
READOUT: pKd
Answer as the number alone; pKd is minus log10 of concentration in mol/L.

Find the measured pKd: item GTTSLFLHL , target or system HLA-A*02:01.
7.31

----------
# TARGET OR TEST SYSTEM: HLA-A*02:02
# ASSAY PROTOCOL: IEDB peptide-MHC binding, purified MHC/competitive/radioactivity; filed as Kd, often an IC50 or EC50 that approximates it; bounds were set here for any values at or beyond the usual limits of such assays
# ASSAY CONDITIONS: source organism: Lassa virus Josiah
READOUT: Kd

Find the measured Kd: item YLISIFLHL , target or system HLA-A*02:02.
173 nM
